- experimental target: BRDT-BD2 (Homo sapiens (Human), UniProt Q58F21)
- experimental protocol: AlphaScreen bromodomain proximity assay (competition with biotinylated (+)-JQ1), BRDT-BD2
Reported pIC50 values for a set of molecules
When answering, recall that pIC50 equals minus log10 of the concentration in mol/L, and write that number alone.

Solved cases below.
Specify measured pIC50 for CNC(=O)c1ccc(C(=O)Nc2cc(NC(=O)c3ccc4c(c3)c(-c3ccc(C)cc3C)nn4C)ccc2OC)cc1 . 7.59

// Input: CC(=O)Nc1cccc(NC(=O)c2ccc3c(c2)c(-c2ccc(N)cc2C)nn3C)c1 . Output its pIC50 only. 7.85

Kindly indicate its recorded pIC50. Item: Cc1cc(N)ccc1-c1nn(C)c2ccc(C(=O)Nc3ccc(F)cc3)cc12 7.00

Note: attention shifts to another entry.
Give pIC50 for the following molecule: CNC(=O)c1ccc(C(=O)Nc2cc(NC(=O)c3ccc4c(c3)c(-c3ccc(N)nc3)nn4C)ccc2C)cc1 7.77
